# Study target: UniProt P43088
# Sequence (P43088 whole entry): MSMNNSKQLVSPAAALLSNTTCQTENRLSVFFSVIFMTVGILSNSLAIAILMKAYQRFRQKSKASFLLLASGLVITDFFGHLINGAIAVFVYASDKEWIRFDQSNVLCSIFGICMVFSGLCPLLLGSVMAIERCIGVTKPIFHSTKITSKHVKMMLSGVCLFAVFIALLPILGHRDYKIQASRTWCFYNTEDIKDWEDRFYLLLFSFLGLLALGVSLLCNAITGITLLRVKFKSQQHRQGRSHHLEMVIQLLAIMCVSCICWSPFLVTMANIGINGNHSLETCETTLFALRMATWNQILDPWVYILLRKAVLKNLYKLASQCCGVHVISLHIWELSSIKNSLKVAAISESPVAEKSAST
# Assay overview: In vitro test of inhibition of human FP receptor activity (PGF2α-induced calcium flux in FP-expressing CHEM1 cells)
# Applied conditions: PGF2α 2 nM, some mean values of multiple determinations
Readout: IC50 (nM)
Use nM as the unit, but write only the number.

Challenge: // returns reported IC50 for input Cc1c(N2CCCCC2)nc2ccc(Br)cc2c1C(=O)NCC(CCC(=O)O)c1c(F)cccc1OC(F)F (single isomer, unassigned; (-)) [Example 183]
Response given: 1.6

Challenge: Now consider Cc1c(N2CCCCC2)nc2ccc(Br)cc2c1C(=O)NCC(CCC(=O)O)c1cc(F)ccc1Cl (single isomer, unassigned; (-)) [Example 6] .
Response given: 7.8

Challenge: Next record, please: Cc1c(N2CCCCC2)nc2ccc(Br)cc2c1C(=O)NCC(CCC(=O)O)c1cccc(F)c1Cl (single isomer, unassigned; (-)) [Example 142]
Response given: 4.3

Challenge: Same again, this time with Cc1c(N2CC3CCC(C3)C2)nc2ccc(Br)cc2c1C(=O)NCC(CCC(=O)O)c1ccccc1Cl (racemic)
Response given: 170

Challenge: # repeat for Cc1c(N2CCCCC2)nc2ccc(Br)cc2c1C(=O)NCC(CCC(=O)O)c1c(Cl)ccc(Cl)c1Cl (single isomer, unassigned; (-)) [Example 173]
Response given: 2.2

Challenge: Another compound to check: Cc1c(N2CCCC2)nc2ccc(Br)cc2c1C(=O)NCC(CCC(=O)O)c1cc(F)ccc1F (single isomer, unassigned; (+)) [Example 259]
Response given: 55

Challenge: Now this one: Cc1c(N2CCCC2)nc2ccc(Br)cc2c1C(=O)NCC(CCC(=O)O)c1cc(F)ccc1F (racemic) [Example 258]
Response given: 80

Challenge: Let us now turn to Cc1c(N2CCCC2)nc2ccc(Br)cc2c1C(=O)NCC(CCC(=O)O)c1ccccc1C(F)(F)F (racemic) [Example 114]
Response given: 14

Challenge: Continue with Cc1c(N2CCCC2)nc2ccc(Br)cc2c1C(=O)NCC(CCC(=O)O)c1c(F)ccc(F)c1Cl (racemic) [Example 154]
Response given: 3.4

Challenge: Next record, please: Cc1c(N2CCCC2)nc2ccc(Br)cc2c1C(=O)NCC(CCC(=O)O)c1c(F)cccc1C(F)(F)F (single isomer, unassigned; (-)) [Example 165]
Response given: 2.9

Challenge: For Cc1c(N2CCCC(F)C2)nc2ccc(Br)cc2c1C(=O)NCC(CCC(=O)O)c1c(F)ccc(F)c1Cl (stereo not shown) then?
Response given: 2.5

Challenge: Follow-up entry: Cc1c(N2CCCC(C#N)C2)nc2ccc(Br)cc2c1C(=O)NCC(CCC(=O)O)c1ccccc1Cl (stereo not shown)
Response given: 670

Challenge: Would you mind doing Cc1c(N2CCSCC2)nc2ccc(Br)cc2c1C(=O)NCC(CCC(=O)O)c1ccccc1Cl (single isomer, unassigned; (-)) [Example 27] as well?
Response given: 14
